target: Neuropeptide S receptor (Homo sapiens); test: Confirmation Concentration-Response Assay for Antagonists of the Neuropeptide S Receptor: cAMP Signal Transduction, SAR for Probe; conditions: CHO-NPSR cells, cAMP TR-FRET, antagonist mode; series mostly up to 47.8 µM
Results filed as inconclusive are left out. The source made the active and inactive calls. The call rests on the fitted dose curve.
Output constraint: value belongs to class 1 for active, class 0 for inactive

Use these answered entries as a reference point.
Cc1[nH]c2ccccc2c1P(=S)(c1ccccc1)c1ccccc1    class 1
S=P(c1ccccc1)(c1ccccc1)c1c(-c2ccccc2)[nH]c2ccccc12    class 1
Cc1c(P(=S)(c2ccccc2)c2ccccc2)c2ccccc2n1C    class 1
Cc1c(P(=S)(c2ccccc2)c2ccccc2)[n+]2ccccc2n1Cc1ccccc1    class 1
Cc1c(P(=S)(c2ccccc2)c2ccccc2)[n+]2ccccc2n1CCCc1ccccc1    class 1
Cn1c(-c2ccccc2)c(P(=S)(c2ccccc2)c2ccccc2)c2ccccc21    class 0

Switching to the query record.
Can you look up the reported call for "Cc1nc2ccccn2c1P(=S)(c1ccccc1)c1ccccc1" for me? class 1
